All values here come from patent US9926297B2.

Target: human muscarinic M1 receptor (Homo sapiens)
Sequence (P11229 1-460): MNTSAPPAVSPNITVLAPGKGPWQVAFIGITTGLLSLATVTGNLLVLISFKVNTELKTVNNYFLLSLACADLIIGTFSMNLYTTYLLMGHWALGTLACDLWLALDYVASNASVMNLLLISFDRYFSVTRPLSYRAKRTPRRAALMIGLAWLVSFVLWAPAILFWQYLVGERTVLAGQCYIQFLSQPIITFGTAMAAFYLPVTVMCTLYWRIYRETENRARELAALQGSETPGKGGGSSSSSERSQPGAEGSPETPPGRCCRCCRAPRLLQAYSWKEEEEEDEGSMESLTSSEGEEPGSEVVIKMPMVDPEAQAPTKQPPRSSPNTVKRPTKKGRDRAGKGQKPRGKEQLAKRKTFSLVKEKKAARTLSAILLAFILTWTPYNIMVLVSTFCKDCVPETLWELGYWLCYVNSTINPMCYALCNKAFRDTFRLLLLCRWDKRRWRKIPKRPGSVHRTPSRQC
Experiment: Alphascreen Surefire phospho-ERK1/2 functional assay, M1
Format: cell-based
Details: CHO cells stably expressing human M1; phospho-ERK1/2; * = variable results; read-out: pEC50 M1 (converted)
# EC50 listing for each entry below

Below, each entry is followed by its recorded EC50 result.
CCOC(=O)N1CCC2(CC(N3CCC(OC)(c4nccn4C)CC3)C2)C1 (single isomer, unassigned) [1-40 Isomer 2]
> 20 µM
CCOC(=O)N1CCC2(CC(N3CCC(c4ccnn4CC)CC3)C2)C1 (single isomer, unassigned) [1-47 Isomer 2]
> 20 µM

IN: Form field: EC50 recorded for CCOC(=O)N1CCC2(CC(N3CCC(C4CCCN4C(=O)N(C)C)CC3)C2)C1 (single isomer, unassigned) [2-20 Isomer 2] with human muscarinic M1 receptor (Homo sapiens) (enter value)
OUT: > 20 µM
